Field IC50: reported value for Inosine-5'-monophosphate dehydrogenase 2 (Homo sapiens); entries drawn from several documents.

compound	system-tested	limit-operator	IC50 (nM)
COc1cc(Nc2nc(-c3ccccc3)nc(N3CCC[C@@H]3CO)n2)ccc1-c1cnco1	Inosine-5'-monophosphate dehydrogenase 2 (Homo sapiens)	=	78
CNc1nc(Nc2ccc(-c3cnco3)c(OC)c2)nc(-c2ccccc2C)n1	Inosine-5'-monophosphate dehydrogenase 2 (Homo sapiens)	=	310
COc1cc2nc(-c3ccccc3C)cc(O)c2cc1-c1cnco1	Inosine-5'-monophosphate dehydrogenase 2 (Homo sapiens)	=	65
COc1cc2c(cc1-c1cnco1)C(=O)N(C)C1(CCN(C(=O)N(C(C)C)C(C)C)C1)N2 (centres undefined)	Inosine-5'-monophosphate dehydrogenase 2 (Homo sapiens)	=	71
COc1ccc(NC(=O)Cn2c(-c3cscn3)nc3ccccc32)cc1	Inosine-5'-monophosphate dehydrogenase 2 (Homo sapiens)	>	50000
Cn1cc(C#N)c2ccc(Nc3ncc(-c4ccccc4)o3)cc21	Inosine-5'-monophosphate dehydrogenase 2 (Homo sapiens)	=	33
C=CCc1c(N)ccc2cnccc12	Inosine-5'-monophosphate dehydrogenase 2 (Homo sapiens)	=	3000
O=C(Nc1ccccc1)Nc1ccc2ccncc2c1	Inosine-5'-monophosphate dehydrogenase 2 (Homo sapiens)	>	5000
COc1cc2nc(-c3ccsc3)cc(O)c2cc1-c1cnco1	Inosine-5'-monophosphate dehydrogenase 2 (Homo sapiens)	=	9
Cc1ccccc1-c1cnc(Nc2ccc3c(-c4cnco4)c[nH]c3c2)o1	Inosine-5'-monophosphate dehydrogenase 2 (Homo sapiens)	=	38
COc1cc(Nc2ncc(-c3ccccc3C)o2)ccc1-c1cnco1	Inosine-5'-monophosphate dehydrogenase 2 (Homo sapiens)	=	25
Cn1cc(C#N)c2ccc(Nc3ncc(-c4cccc(CNC(=O)c5cccc6ccccc56)c4)o3)cc21	Inosine-5'-monophosphate dehydrogenase 2 (Homo sapiens)	=	84
COc1cc2[nH]c(-c3ccccc3)c(C#N)c2cc1-c1cnco1	Inosine-5'-monophosphate dehydrogenase 2 (Homo sapiens)	=	130
COc1cc(Nc2nnc(-c3ccccc3)s2)ccc1-c1cnco1	Inosine-5'-monophosphate dehydrogenase 2 (Homo sapiens)	=	330

----------
Field IC50: reported value for Inosine-5'-monophosphate dehydrogenase 2 (Homo sapiens, UniProt P12268); entries drawn from several documents.

smiles-structure	limit-operator	IC50 (nM)
Cn1cc(C#N)c2ccccc21	=	7660
Cc1ccccc1NC(=O)Nc1ccc2cnccc2c1	=	3800
COc1cc2nc(-c3cccc(O)c3)cc(O)c2cc1-c1cnco1	=	18
COc1cc(Nc2nc(NCCc3cccnc3)nc(-c3ccccc3)n2)ccc1-c1cnco1	=	58
CC(C)(Oc1ccc(Cl)cc1)C(=O)Nc1ccc2oc(-c3ccncc3)nc2c1	>	5000
COc1ccc2cnccc2c1Br	>	5000
COc1cc2[nH]c(Cc3ccccc3)c(C=O)c2cc1-c1cnco1	=	360
COc1cc(Nc2ncc(-c3ccccc3)o2)ccc1-c1cnco1	=	16
COc1cc2nc(-c3ccc(N4CCN(C)CC4)cc3)cc(O)c2cc1-c1cnco1	=	53
COc1cc2nc(Cc3ccccc3)cc(O)c2cc1-c1cnco1	=	180
COc1c(C)c2c(c(O)c1C/C=C(\C)CCC(=O)[C@@H]1CO1)C(=O)OC2	=	330
c1ccc(-c2cnc(Nc3ccc4cncnc4c3)o2)cc1	=	60
COc1cc2nc(-c3ccc(C)c(N4CCN(C)CC4)c3)cc(O)c2cc1-c1cnco1	=	26
O=C(Cn1c(-c2cscn2)nc2ccccc21)NCc1ccc(Cl)cc1	>	5000
COc1cc(Nc2nc(-c3ccccc3)nc(N3CCN(C)CC3)n2)ccc1-c1cnco1	=	330
COc1cc(Nc2ncc(-c3ccccc3N(C)C(=O)CN3CCOCC3)o2)ccc1-c1cnco1	=	12
COc1cc(Nc2ncc(-c3ccccc3N(C)C(=O)CCN3CCOCC3)o2)ccc1-c1cnco1	=	13
COc1cc2nc(N(C)C)cc(O)c2cc1-c1cnco1	=	200
COc1cc(NC(=O)C(=O)NC(C)(C)CN(C)C)ccc1-c1cnco1	=	47
C[C@@H](C(=O)Nc1ccc2oc(-c3ccncc3)nc2c1)c1cccc(Cl)c1Cl	>	5000
CN(C)c1cc(C(C)(C)NC(=O)c2cc3[nH]c4ccccc4c(=O)c3cc2F)ccn1	=	14
O=C(Cn1c(-c2ccccc2)nc2ccccc21)Nc1ccc(Cl)cc1	>	5000
COc1c(C)c2c(c(O)c1C/C=C(\C)CCCP(=O)(O)O)C(=O)OC2	=	86
CCc1nc(Nc2ccc(-c3cnco3)c(OC)c2)oc1-c1ccccc1	=	86
COc1c(C)c2c(c(OC)c1C/C=C(\C)[C@@H](O)CC(=O)O)C(=O)OC2	=	28900
CC(=O)Oc1cccc(/C=C/C(=O)Nc2ccc3c(c2)COC3=O)c1	=	8800
COc1cc2nc(-c3ccccc3)c(C)c(O)c2cc1-c1cnco1	=	65
COc1cc(Nc2nc(-c3ccccc3)cs2)ccc1-c1cnco1	=	300
Cn1cc(C#N)c2ccc(Nc3ncc(-c4cccc(CNC(=O)c5ccccc5)c4)o3)cc21	=	130
COc1cc2nc(-c3ccncc3)cc(O)c2cc1-c1cnco1	=	46
CNc1nc(Nc2ccc(-c3cnco3)c(OC)c2)nc(-c2cccc(C)c2)n1	=	130
O=C(Nc1ccccc1)Nc1ccc2c(-c3cnco3)c[nH]c2c1	=	40
COc1cc2nc(-c3cccc(Br)c3)cc(O)c2cc1-c1cnco1	=	22
Nc1ccc2cnccc2c1Cl	=	1200

----------
Field IC50: reported value for Inosine-5'-monophosphate dehydrogenase 2 (Homo sapiens); entries drawn from several documents.

compound	system-tested	result-units	limit-operator	IC50
COc1cc(NC(=O)C(=O)NC(C)(C)C(=O)O)ccc1-c1cnco1	Inosine-5'-monophosphate dehydrogenase 2 (Homo sapiens)	nM	>	10000
COc1cc2nc(-c3ccc(C)c(C)c3)cc(O)c2cc1-c1cnco1	Inosine-5'-monophosphate dehydrogenase 2 (Homo sapiens)	nM	<	5
C=C(C)c1cccc(C(C)(C)NC(=O)Nc2ccccc2Cl)c1	Inosine-5'-monophosphate dehydrogenase 2 (Homo sapiens)	nM	≥	5000
CC(C)(NC(=O)c1cc2[nH]c3ccccc3c(=O)c2cc1F)c1cccc(S(C)(=O)=O)c1	Inosine-5'-monophosphate dehydrogenase 2 (Homo sapiens)	nM	=	12
O=C(Cn1c(-c2cscn2)nc2ccccc21)Nc1ccc(Br)cc1	Inosine-5'-monophosphate dehydrogenase 2 (Homo sapiens)	nM	>	5000
C[C@H](Oc1cccc(Cl)c1Cl)C(=O)Nc1cc(Cl)c2oc(-c3ccncc3)nc2c1	Inosine-5'-monophosphate dehydrogenase 2 (Homo sapiens)	nM	>	5000
CCCNC(=O)C(=O)Nc1ccc(-c2cnco2)c(OC)c1	Inosine-5'-monophosphate dehydrogenase 2 (Homo sapiens)	nM	>	10000
Cc1cccc(NC(=O)Nc2ccc3cncnc3c2)c1	Inosine-5'-monophosphate dehydrogenase 2 (Homo sapiens)	nM	=	150
NC(=O)c1cccc([C@@H]2O[C@H](COP(=O)(O)CP(=O)(O)OC[C@@H]3O[C@H](n4cnc5c(N)ncnc54)[C@H](F)[C@H]3O)[C@@H](O)[C@H]2O)c1	Inosine-5'-monophosphate dehydrogenase 2 (Homo sapiens)	nM	=	175000
C[C@H](Oc1cccc(Cl)c1Cl)C(=O)Nc1ccc2nc(-c3cncs3)oc2c1	Inosine-5'-monophosphate dehydrogenase 2 (Homo sapiens)	nM	>	5000
COc1cc(Nc2ncc(-c3ccccc3N(C)C(=O)CNC(C)(C)C)o2)ccc1-c1cnco1	Inosine-5'-monophosphate dehydrogenase 2 (Homo sapiens)	nM	=	20
CC(=O)Nc1ccc2cnccc2c1	Inosine-5'-monophosphate dehydrogenase 2 (Homo sapiens)	nM	>	5000
CC(Oc1c(Cl)cccc1Cl)C(=O)Nc1ccc2oc(-c3ccncc3)nc2c1 (configuration not stated)	Inosine-5'-monophosphate dehydrogenase 2 (Homo sapiens)	nM	>	5000
COc1cc(NC(=O)CC(=O)Nc2ccccc2)ccc1-c1cnco1	Inosine-5'-monophosphate dehydrogenase 2 (Homo sapiens)	nM	=	400
CN(C)c1ccc(C(C)(C)NC(=O)c2cc3[nH]c4ccccc4c(=O)c3cc2F)cn1	Inosine-5'-monophosphate dehydrogenase 2 (Homo sapiens)	nM	=	22
COc1cc(Nc2ncc(-c3ccccc3NC(C)=O)o2)ccc1-c1cnco1	Inosine-5'-monophosphate dehydrogenase 2 (Homo sapiens)	nM	=	30
COc1cc(-c2ccccc2)nc(Nc2ccc(-c3cnco3)c(OC)c2)n1	Inosine-5'-monophosphate dehydrogenase 2 (Homo sapiens)	nM	=	110
COc1cc2[nH]c(=S)n(CCN3CCOCC3)c(=O)c2cc1-c1cnco1	Inosine-5'-monophosphate dehydrogenase 2 (Homo sapiens)	nM	=	71
Cc1cccc(NC(=O)Nc2ccc3c(C#N)cn(C)c3c2)c1	Inosine-5'-monophosphate dehydrogenase 2 (Homo sapiens)	nM	=	670
Nc1ccc2c(-c3cncs3)c[nH]c2c1	Inosine-5'-monophosphate dehydrogenase 2 (Homo sapiens)	nM	=	27900
COc1c(C)c2c(c(O)c1C/C=C(\C)CNCP(=O)(O)O)C(=O)OC2	Inosine-5'-monophosphate dehydrogenase 2 (Homo sapiens)	nM	>	1000
CN(C(=O)CN1CCOCC1)c1ccccc1-c1cnc(Nc2ccc3c(-c4cnco4)c[nH]c3c2)o1	Inosine-5'-monophosphate dehydrogenase 2 (Homo sapiens)	nM	=	35
COc1cccc(/C=C/C(=O)c2ccc(OCC(=O)Nc3ccc4c(c3)COC4=O)cc2)c1	Inosine-5'-monophosphate dehydrogenase 2 (Homo sapiens)	nM	=	360
COc1cc(Nc2nc(-c3ccccc3)nc(N3CCN(C=O)CC3)n2)ccc1-c1cnco1	Inosine-5'-monophosphate dehydrogenase 2 (Homo sapiens)	nM	=	160
O=P(O)(O)OC[C@@H]1OC(n2cnc3c(O)nc(C(O)O)nc32)[C@@H](O)[C@H]1O (some centres not stated)	Inosine-5'-monophosphate dehydrogenase 2 (Homo sapiens)	nM	=	440
CNc1nc(Nc2ccc(-c3cnco3)c(OC)c2)nc(N2CCC[C@H]2CO)n1	Inosine-5'-monophosphate dehydrogenase 2 (Homo sapiens)	nM	=	130
Cc1cccc(NC(=O)Nc2ccc3c(-c4cnco4)cn(C)c3c2)c1	Inosine-5'-monophosphate dehydrogenase 2 (Homo sapiens)	nM	>	5000
